# half-life annotations
# Format: in vivo, healthy adult subjects (human)
# experimental-parameters: human, plasma, po, 100 mg
Numbers only here, please. The scale is h.

- entry-smiles: "COC(=O)N[C@H](C(=O)N1CCC[C@H]1c1nc(-c2ccc3c(c2)O[C@@H](c2ccccc2)n2c-3cc3cc(-c4c[nH]c([C@@H]5CCCN5C(=O)[C@@H](NC(=O)OC)C(C)C)n4)ccc32)c[nH]1)C(C)C"
  endpoint-result: 19.3

Task: Given `C=C[C@@H]1C[C@]1(NC(=O)[C@@H]1C[C@@H]2CN1C(=O)[C@H](C(C)(C)C)NC(=O)O[C@@H]1C[C@H]1CCCCCc1nc3ccc(OC)cc3nc1O2)C(=O)NS(=O)(=O)C1CC1` , state its recorded half-life.
Output: 33.8

----------
# Format: in vivo, healthy adult subjects (human)
# experimental-parameters: human, plasma, po, 100 mg
readout-kind: Tmax (h)
Respond numerically; units are h and should not be typed.

Task: Give its Tmax value. Item: COC(=O)N[C@H](C(=O)N1CCC[C@H]1c1nc(-c2ccc3c(c2)O[C@@H](c2ccccc2)n2c-3cc3cc(-c4c[nH]c([C@@H]5CCCN5C(=O)[C@@H](NC(=O)OC)C(C)C)n4)ccc32)c[nH]1)C(C)C [EBR, elbasvir]
Output: 3.5
